These data points were gathered from patent US20130231360A1.

Molecular target: Haspin kinase (Homo sapiens, UniProt Q8TF76)
Construct: This full-length Haspin gene was cloned into the pMALc2E vector; made in house; host or cells: E. coli Rosetta 2(DE3)pLysS
Sequence (Q8TF76 whole entry): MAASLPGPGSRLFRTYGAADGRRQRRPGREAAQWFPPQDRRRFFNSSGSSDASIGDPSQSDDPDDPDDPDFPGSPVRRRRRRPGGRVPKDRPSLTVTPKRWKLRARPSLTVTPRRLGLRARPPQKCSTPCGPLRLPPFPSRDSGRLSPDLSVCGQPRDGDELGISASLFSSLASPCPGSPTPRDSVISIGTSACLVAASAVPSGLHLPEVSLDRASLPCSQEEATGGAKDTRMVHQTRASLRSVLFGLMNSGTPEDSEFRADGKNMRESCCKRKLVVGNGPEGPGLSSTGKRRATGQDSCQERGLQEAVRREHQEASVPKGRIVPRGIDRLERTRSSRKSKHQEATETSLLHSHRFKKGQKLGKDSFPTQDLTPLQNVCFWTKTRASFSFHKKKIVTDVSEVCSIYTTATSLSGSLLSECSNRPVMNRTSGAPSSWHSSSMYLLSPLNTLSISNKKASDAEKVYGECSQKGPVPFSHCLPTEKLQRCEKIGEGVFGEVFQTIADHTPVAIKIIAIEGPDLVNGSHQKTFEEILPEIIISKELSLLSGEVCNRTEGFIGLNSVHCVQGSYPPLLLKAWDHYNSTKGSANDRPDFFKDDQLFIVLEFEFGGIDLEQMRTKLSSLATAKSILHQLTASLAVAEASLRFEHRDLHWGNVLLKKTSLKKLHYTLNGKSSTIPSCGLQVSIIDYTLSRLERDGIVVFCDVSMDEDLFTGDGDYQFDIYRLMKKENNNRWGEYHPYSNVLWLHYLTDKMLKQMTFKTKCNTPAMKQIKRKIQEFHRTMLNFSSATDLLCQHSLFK
Test: TR-FRET Haspin assay
Assay type: biochemical
Conditions: inhibition of Haspin kinase, TR-FRET assay of Example 3; MBP-Haspin, H3(1-21)-biotin peptide 0.1 μM, ATP 200 μM; read-out: IC50
Description: A synthetic codon-optimized human Haspin cDNA was made in vector pUC57 at GenScript Corporation (Piscataway, N.J.) to facilitate bacterial expression. […] This culture was used to inoculate a large volume of the same medium and grown until an absorbance at 600 nm of 0.5 was reached. […] The purity and yield of intact fusion protein was determined by SDS-PAGE and Coomassie Blue staining, in comparison with known quantities of bovine serum albumin. […]
Entries annotated with measured IC50

- compound: "COc1ccc2c3ccnc(C)c3n(CCCCN)c2c1Cl [LDN-211897]"
  subjectOfTest: "Haspin kinase (Homo sapiens, UniProt Q8TF76)"
  IC50: "< 1200 nM"
- compound: "CNCCCCn1c2cc(OC)ccc2c2ccnc(C)c21 [LDN-211900]"
  subjectOfTest: "Haspin kinase (Homo sapiens, UniProt Q8TF76)"
  IC50: "< 400 nM"
- compound: "COc1ccc2c3ccnc(C)c3n(CCCCN)c2c1 [LDN-211901]"
  subjectOfTest: "Haspin kinase (Homo sapiens, UniProt Q8TF76)"
  IC50: "< 500 nM"
- compound: "CCc1nccc2c3ccc(OC)cc3n(CCCCN)c12 [LDN-209984]"
  subjectOfTest: "Haspin kinase (Homo sapiens, UniProt Q8TF76)"
  IC50: "< 200 nM"
- compound: "COc1ccc2c3ccnc(C(F)(F)F)c3n(CCCCN)c2c1 [LDN-211898]"
  subjectOfTest: "Haspin kinase (Homo sapiens, UniProt Q8TF76)"
  IC50: "< 150 nM"

The compound NCCCCn1c2cc(O)ccc2c2ccnc(C(F)(F)F)c21 [LDN-211998] , when measured on Haspin kinase (Homo sapiens, UniProt Q8TF76), yielded IC50 of < 300 nM

The reported Haspin kinase (Homo sapiens, UniProt Q8TF76) IC50 of COc1cccc2c3ccnc(C)c3n(CCCCN)c12 [LDN-211893] is < 300 nM

Record COc1ccc2c3ccncc3n(CCCCN)c2c1 [LDN-209983] has Haspin kinase (Homo sapiens, UniProt Q8TF76) IC50 equal to < 350 nM

# COc1ccc2c(c1)c1ccnc(C)c1n2CCCCN [LDN-211894] with Haspin kinase (Homo sapiens, UniProt Q8TF76): IC50 is < 3000 nM
